molecular target: mouse GPC3 overexpressed on K562 cells (mouse) (UniProt Q8CFZ4); experiment: cell-based or functional assay
Sequence (Q8CFZ4 25-579): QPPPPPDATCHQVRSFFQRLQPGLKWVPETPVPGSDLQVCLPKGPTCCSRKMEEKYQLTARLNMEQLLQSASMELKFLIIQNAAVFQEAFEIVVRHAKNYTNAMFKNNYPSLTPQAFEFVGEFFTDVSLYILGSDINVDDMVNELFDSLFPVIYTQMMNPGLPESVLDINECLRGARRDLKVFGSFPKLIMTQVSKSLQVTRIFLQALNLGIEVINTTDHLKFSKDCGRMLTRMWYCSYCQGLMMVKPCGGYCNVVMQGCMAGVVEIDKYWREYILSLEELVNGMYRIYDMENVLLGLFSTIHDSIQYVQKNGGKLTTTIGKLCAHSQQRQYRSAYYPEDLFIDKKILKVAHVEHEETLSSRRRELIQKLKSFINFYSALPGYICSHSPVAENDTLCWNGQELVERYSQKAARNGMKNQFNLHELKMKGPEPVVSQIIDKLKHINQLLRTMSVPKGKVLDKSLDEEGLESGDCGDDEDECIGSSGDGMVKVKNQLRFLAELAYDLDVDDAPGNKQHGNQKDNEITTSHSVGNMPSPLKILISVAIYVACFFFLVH
Endpoint: % dead target cells, flow cytometry, 48h, K562-mouse GPC3 (%)
Lab book: enter the figure in %, no units written.

Specify reported % dead target cells, flow cytometry, 48h, K562-mouse GPC3 for the binder shown: hmAb1-4 CAR (protein, part only; not given: hinge, transmembrane and signaling domains, part only) chain, part: QVQLVQSGAEVKKPGASVKVSCKTSGYTFTDYYIHWVRQAPGQGLEWIGEIYPGSGNTYYAQKFQGRATLTADTSTSTAYMEFSSLRSEDTAVYYCARGNDYDAWFVYWGQGTLVTVSSGSTSGSGKPGSGEGSTKGDIVMTQSPDSLAVSLGERATINCKSSQSLLNSGTRKNYLAWYQQKPGQPPKLLIYWASIRESGVPDRFSGSGSGTDFTLTISSLQAEDVAVYYCKQSYSLYTFGQGTKLEIK
52.7
